Below, each of the binders is paired with its reported Top MFI value.
Target: T1, human DLL3 on SHP-77 cells (human, UniProt Q9NYJ7 27-618)
T1 construct: also called DLL3-expressing cells (SHP-77)
T1 sequence: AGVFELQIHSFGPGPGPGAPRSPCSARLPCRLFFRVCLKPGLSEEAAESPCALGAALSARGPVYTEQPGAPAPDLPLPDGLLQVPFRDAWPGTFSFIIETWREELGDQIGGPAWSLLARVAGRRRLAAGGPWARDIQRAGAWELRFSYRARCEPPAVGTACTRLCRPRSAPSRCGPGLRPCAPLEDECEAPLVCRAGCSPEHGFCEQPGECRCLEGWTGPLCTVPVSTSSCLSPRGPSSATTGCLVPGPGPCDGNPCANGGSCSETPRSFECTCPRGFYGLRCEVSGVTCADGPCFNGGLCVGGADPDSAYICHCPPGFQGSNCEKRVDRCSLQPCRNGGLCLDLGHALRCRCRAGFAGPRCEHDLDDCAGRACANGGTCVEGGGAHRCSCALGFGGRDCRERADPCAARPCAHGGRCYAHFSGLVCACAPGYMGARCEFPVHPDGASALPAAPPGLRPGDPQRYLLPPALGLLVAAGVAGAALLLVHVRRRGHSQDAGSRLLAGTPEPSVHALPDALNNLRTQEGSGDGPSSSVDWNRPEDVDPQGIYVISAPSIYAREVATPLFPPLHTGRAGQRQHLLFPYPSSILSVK
Assay: flow cytometry, SHP-77 cells
Just the number please, in MFI, no unit attached.

Please fill in: Top MFI reported for DLL3-276 camelid-derived anti-DLL3 chimeric antibody (antibody, human IgG1, V domains shown) VH: QVQLVESGGGSVQAGGSLNLSCATSGSTASTTYMGWFRQAPGKGREGVAIIYTARDNPWYANSVKGRFIISQDNAKKTLYLQMNTLKPEDTATYYCAATLANPTRTAWGQGTLVTVSS = 763

New cases:
# binder DLL3-3 camelid-derived anti-DLL3 chimeric antibody (antibody, human IgG1, V domains shown) VH: DVQLVESGGGSVQAGGSLKLSCKSPTYTISSGYMGWFRQAPGKEREGVAAIYIGGSTTLYADSVKGRFTISADNAEKTVYLQMNTLKPEDSAMYYCAAQLRPNSAYHPLDGRKYNYWGQGTQVTVSS ; its Top MFI = 874

Reported Top MFI ( DLL3-122 camelid-derived anti-DLL3 chimeric antibody (antibody, human IgG1, V domains shown) VH: QVQLVESGGGSVQAGGSLRLSCTASGDTYRSYCMGWFRKAPGKEREGVADIVSDGSTSYADSVKGRFTISKDNAKNTLYLQMNSLKPEDTAMYYCAVDRGGSGGYCYTGRYDYWGQGTQVTVSS ) = 846

For record DLL3-12 camelid-derived anti-DLL3 chimeric antibody (antibody, human IgG1, V domains shown) VH: QVQLVESGGGLVQPGESLRLSCAGSGFAFSSYDMHWVRQAPGKDFEWVSSISRDGRGPRYADFVKGRFTISKDNGRNMLYLQLNSLEIEDTAMYYCSKGYPIMGGTTQGTQVTVSS the listed Top MFI is 886

The reported Top MFI of the binder DLL3-26 camelid-derived anti-DLL3 chimeric antibody (antibody, human IgG1, V domains shown) VH: QVQLVESGGGSVQAGGSLRLSCAASGDIYSSSYVGWFRQAPGKEREGVAIIYTSGDSTYYANSVKGRFTISQDKAKKTLYLQMNSLKPEDTAMYYCAARFAIDNSNYWGQGTQVTVSS was 821
